- Assay Explanation: Half life in iv dosed rat
- Format: ADME, organism-based
- Stated Conditions: in vivo
Property Name: half-life (h)
Form entry: value (h) — number only.

What does the data say about its half-life? Entry: C[C@H](CO)Nc1nc(SCc2cccc(F)c2F)nc2nc(N)sc12
1.2

###

- Assay Explanation: Permeability from basolateral to apical side of the human Caco-2 cell membrane
- Format: ADME, cell-based
- Stated Conditions: read-out: permeability
Property Name: Papp B→A (×10⁻⁶ cm/s)
# value in ×10⁻⁶ cm/s; strip the unit string

What value of Papp B→A has been recorded for this entry: C[C@H](CO)Nc1nc(SCc2cccc(F)c2F)nc2nc(N)sc12
13.7

###

- Assay Explanation: Permeability from apical to basolateral side of the human Caco-2 cell membrane
- Type: ADME, cell-based
- Stated Conditions: read-out: permeability
Property Name: Papp A→B (×10⁻⁶ cm/s)
A number alone suffices; assume ×10⁻⁶ cm/s.

Bench note: what Papp A→B did C[C@H](CO)Nc1nc(SCc2cccc(F)c2F)nc2nc(N)sc12 show?
2.47

###

- Target Or System: UniProt:P25025
- Sequence (P25025 whole entry): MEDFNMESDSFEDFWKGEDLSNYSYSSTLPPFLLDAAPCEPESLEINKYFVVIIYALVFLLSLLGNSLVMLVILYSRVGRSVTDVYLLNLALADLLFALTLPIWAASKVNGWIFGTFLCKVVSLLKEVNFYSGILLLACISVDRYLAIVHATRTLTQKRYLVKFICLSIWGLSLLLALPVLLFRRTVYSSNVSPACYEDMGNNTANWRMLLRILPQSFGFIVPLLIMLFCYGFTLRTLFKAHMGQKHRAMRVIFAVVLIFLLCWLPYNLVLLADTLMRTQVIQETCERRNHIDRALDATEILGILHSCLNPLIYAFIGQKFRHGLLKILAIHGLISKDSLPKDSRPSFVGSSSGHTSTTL
- Assay Explanation: Displacement of [125I]IL8 from human CXCR2 expressed in HEK 293 by SPA
- Type: cell-based, HEK293
Property Name: pIC50
Keep it numeric: pIC50 is minus log10 of the concentration in mol/L.

Cc1nc(CSc2nc(N[C@H](C)CO)c3sc(N)nc3n2)cs1    6.90
CCN(CC)c1nc2nc(SCc3cccc(F)c3F)nc(NC(CO)CO)c2s1    5.80
C[C@H](CO)Nc1nc(SCc2cccc(F)c2)nc2nc(N)sc12    7.80
Cc1nc(CSc2nc(NC(C)(C)CO)c3sc(N)nc3n2)cs1    6.00
CCN(CC)c1nc2nc(SCc3cccc(F)c3F)nc(N[C@H](C)CO)c2s1    6.40
C[C@@H](O)[C@@H](CO)Nc1nc(SCc2cccc(F)c2F)nc2nc(N)sc12    7.80

// query pIC50 value for entry CC(C)(CO)Nc1nc(SCc2cccc(F)c2F)nc2nc(N)sc12
7.60

Note, next up: C[C@H](CO)Nc1nc(SCc2ccco2)nc2nc(N)sc12
7.50

Also check Nc1nc2nc(SCc3cccc(F)c3F)nc(NC(CO)CO)c2s1
7.50

And C[C@H](CO)Nc1nc(SCc2cccc(F)c2F)nc2nc(NC3CC3)sc12 ?
7.70

###

Consider the following molecules and their measured pIC50 readings.
- Target Or System: C-X-C chemokine receptor type 2 (Homo sapiens, UniProt P25025)
- Assay Explanation: Displacement of [125I]IL8 from human CXCR2 expressed in HEK 293 by SPA
- Assay type: cell-based, HEK293
Please express pIC50 as -log10 of the molar concentration.

C[C@H](CO)Nc1nc(SCc2ccccc2Cl)nc2nc(N)sc12    7.50
C[C@H](CO)Nc1nc(SCc2cccc(Cl)c2Cl)nc2nc(N)sc12    7.80
OCC(CO)Nc1nc(SCc2cccc(F)c2F)nc2nc(NC3CC3)sc12    7.00

Which pIC50 value belongs to CC[C@H](CO)Nc1nc(SCc2cccc(F)c2F)nc2nc(N)sc12 ?
7.60

Now try CC(C)(CO)Nc1nc(SCc2ccco2)nc2nc(N)sc12 .
7.00

Ok, now CC[C@H](CO)Nc1nc(SCc2cccc(F)c2F)nc2nc(NC(C)C)sc12
7.00

Also CC(CO)(CO)Nc1nc(SCc2cccc(F)c2F)nc2nc(N)sc12 , if possible.
7.10

Hey, just so you know, these numbers are from ChEMBL document CHEMBL1147921.
